- Measurement Target: TARP γ8 dependent AMPA receptor (GluA1o-g8 fusion channel) (Homo sapiens (Human), UniProt P42261+Q8WXS5)
- Sequence (P42261 other isoform, or with tags, fused parts or gaps): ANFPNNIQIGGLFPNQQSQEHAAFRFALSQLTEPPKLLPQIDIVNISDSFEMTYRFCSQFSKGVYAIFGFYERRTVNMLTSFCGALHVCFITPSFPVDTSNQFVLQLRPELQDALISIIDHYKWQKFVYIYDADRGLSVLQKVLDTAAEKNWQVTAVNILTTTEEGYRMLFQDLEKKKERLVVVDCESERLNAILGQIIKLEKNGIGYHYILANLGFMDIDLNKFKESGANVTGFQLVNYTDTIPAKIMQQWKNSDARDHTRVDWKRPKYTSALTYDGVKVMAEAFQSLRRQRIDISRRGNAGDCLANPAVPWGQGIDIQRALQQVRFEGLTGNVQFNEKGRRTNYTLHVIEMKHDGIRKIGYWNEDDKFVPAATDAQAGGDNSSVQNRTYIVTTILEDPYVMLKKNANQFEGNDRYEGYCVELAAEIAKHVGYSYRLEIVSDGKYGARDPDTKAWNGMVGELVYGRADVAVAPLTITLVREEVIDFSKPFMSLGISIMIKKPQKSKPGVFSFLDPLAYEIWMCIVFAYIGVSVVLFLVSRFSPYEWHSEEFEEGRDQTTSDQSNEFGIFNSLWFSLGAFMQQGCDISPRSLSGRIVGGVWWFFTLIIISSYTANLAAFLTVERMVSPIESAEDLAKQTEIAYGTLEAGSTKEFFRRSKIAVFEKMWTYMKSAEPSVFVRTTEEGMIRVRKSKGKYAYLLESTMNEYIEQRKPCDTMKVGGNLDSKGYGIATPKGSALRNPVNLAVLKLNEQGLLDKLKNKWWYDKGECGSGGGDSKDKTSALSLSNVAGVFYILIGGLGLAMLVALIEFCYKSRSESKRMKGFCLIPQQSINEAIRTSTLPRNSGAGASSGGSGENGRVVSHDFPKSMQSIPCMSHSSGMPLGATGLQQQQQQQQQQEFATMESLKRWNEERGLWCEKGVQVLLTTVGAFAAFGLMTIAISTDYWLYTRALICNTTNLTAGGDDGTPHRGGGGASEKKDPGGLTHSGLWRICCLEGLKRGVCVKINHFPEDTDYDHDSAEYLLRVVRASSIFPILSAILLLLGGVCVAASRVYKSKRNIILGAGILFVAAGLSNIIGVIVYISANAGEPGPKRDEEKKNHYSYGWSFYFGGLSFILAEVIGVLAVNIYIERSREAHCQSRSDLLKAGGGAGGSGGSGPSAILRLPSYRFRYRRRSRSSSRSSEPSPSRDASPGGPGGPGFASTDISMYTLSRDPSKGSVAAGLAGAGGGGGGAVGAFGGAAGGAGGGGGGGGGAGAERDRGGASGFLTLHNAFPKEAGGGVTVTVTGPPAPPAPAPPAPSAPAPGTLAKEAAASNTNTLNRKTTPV
- Assay Details: Calcium flux assay (FLIPR), HEK293 cells expressing GRIA1o-CACNG8 fusion
- Format: cell-based
- Test Conditions: inhibition of calcium flux after 15 μM glutamate, read-out: GluR1-γ8 pIC50 (converted)
Strictly below 200 nM in IC50: yes (1). Otherwise: no (0).

Worked cases, answers included:
[[record]]
smiles_record = "CC(C)n1nccc1-c1cccc(Cl)c1-c1ccc2[nH]c(=O)[nH]c2c1"
label_value = "no (0)"

[[record]]
smiles_record = "O=c1[nH]c2ccc(-c3c(Cl)cccc3NCc3ccco3)cc2[nH]1"
label_value = "yes (1)"

[[record]]
smiles_record = "O=c1[nH]c2ccc(-c3c(Cl)cccc3-c3cn[nH]c3)cc2[nH]1"
label_value = "no (0)"

[[record]]
smiles_record = "O=c1[nH]c2ccc(-c3c(Cl)cccc3-c3ccncc3)cc2[nH]1"
label_value = "no (0)"


Here's the next entry for you.
Query: # strict comparison: is reported IC50 < 200 nM? input = "Cc1c(-c2ccc3[nH]c(=O)[nH]c3c2)cccc1-c1ncno1"
Result: yes (1)
